The measurements presented in this section are drawn from patent US20250230155A1.

- tgt: human mAChR M4 (Homo sapiens)
- Construct: expressed in transfected cells
- Sequence (P08173 whole entry): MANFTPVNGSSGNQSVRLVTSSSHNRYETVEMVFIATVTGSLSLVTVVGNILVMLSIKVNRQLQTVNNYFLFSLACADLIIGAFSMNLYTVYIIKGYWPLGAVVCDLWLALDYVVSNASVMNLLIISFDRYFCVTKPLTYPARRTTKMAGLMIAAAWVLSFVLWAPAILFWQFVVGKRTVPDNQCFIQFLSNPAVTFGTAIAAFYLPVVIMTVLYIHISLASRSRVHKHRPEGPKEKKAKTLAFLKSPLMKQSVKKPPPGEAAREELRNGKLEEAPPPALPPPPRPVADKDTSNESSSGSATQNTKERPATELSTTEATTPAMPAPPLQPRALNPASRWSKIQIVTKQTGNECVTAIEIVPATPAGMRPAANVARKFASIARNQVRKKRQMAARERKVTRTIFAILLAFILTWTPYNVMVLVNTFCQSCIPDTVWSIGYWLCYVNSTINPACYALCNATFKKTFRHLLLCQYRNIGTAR
- assay.method.text: mAChR M4 cell-based functional assay (calcium mobilization, CHO-K1 hM4-Gqi5 cells)
- assay.context: positive allosteric modulator activity, increase in the EC20 acetylcholine response, CHO-K1 hM4-Gqi5 cells; read-out: Human M4 EC50
endpoint.name: pEC50
Friendly reminder that pEC50 comes from taking -log10 of the concentration in mol/L.

Reference set (2 entries):
>  <compound>
Cc1c(C#N)nnc(N2CCc3ncc(-c4ccc(N(C)C)nc4)cc3C2)c1C [Example 312]

>  <pEC50>
6.34

$$$$
>  <compound>
Cc1cc(C(=O)NCc2cn3ccccc3n2)cnc1N1CCc2ncccc2C1 [compound 120]

>  <pEC50>
5.57

$$$$

Okay, now this compound:
// query Checklist item: pEC50 tested on human mAChR M4 (Homo sapiens), entry Cc1c(C#N)nnc(N2CCc3ncc(-c4ccc(N5CC6(COC6)C5)nc4)cc3C2)c1C [Example 332] , value?
// result 6.08
